- measurement_target: human M2 receptor (Homo sapiens)
- Sequence (P08172 1-466): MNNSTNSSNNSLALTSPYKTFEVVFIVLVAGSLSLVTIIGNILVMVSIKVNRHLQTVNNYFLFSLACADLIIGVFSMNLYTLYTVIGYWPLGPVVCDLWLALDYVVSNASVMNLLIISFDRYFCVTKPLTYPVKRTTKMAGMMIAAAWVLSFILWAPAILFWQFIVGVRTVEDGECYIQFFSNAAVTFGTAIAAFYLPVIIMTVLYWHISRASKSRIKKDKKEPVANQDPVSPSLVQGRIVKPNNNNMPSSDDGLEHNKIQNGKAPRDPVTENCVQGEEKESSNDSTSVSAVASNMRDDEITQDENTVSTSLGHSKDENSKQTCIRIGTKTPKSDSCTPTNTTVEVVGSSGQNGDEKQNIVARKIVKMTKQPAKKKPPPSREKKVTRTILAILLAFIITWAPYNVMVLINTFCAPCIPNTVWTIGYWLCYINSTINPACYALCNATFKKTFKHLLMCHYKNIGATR
- Type: cell-based
- measurement_setup: shift in the acetylcholine dose-response curve (Allosteric EC50 shift, GraphPad PRISM); α >1 = positive cooperativity
Respond with TRUE for Cooperativity (alpha factor) values of 30 and above, FALSE for values below.

{"compound": "CC(COC(F)(F)F)NC(=O)c1cn(-c2ccc(F)cc2F)c2nc(N3CC[C@H](F)C3)ccc2c1=O (single isomer, unassigned) [Example 229]", "classification": "FALSE"}
{"compound": "CCC(NC(=O)c1cn(-c2ccc(F)cc2F)c2nc(N3C[C@@H](O)CC3=O)ccc2c1=O)C(F)(F)F (stereo partly drawn)", "classification": "FALSE"}
{"compound": "O=C(NC(C(F)(F)F)C(F)(F)F)c1cn(-c2ccc(F)cc2F)c2nc(N3CC[C@H](F)C3)ccc2c1=O", "classification": "FALSE"}
{"compound": "CC[C@H](NC(=O)c1cn(-c2ccc(F)cc2F)c2nc(N3CC[C@H](F)C3)ccc2c1=O)C(F)(F)F", "classification": "FALSE"}
{"compound": "CC(NC(=O)c1cn(-c2ccc(F)cc2F)c2nc(N3C[C@@H](O)CC3=O)ccc2c1=O)c1c(F)cccc1F (mixture of isomers) [Example 214]", "classification": "TRUE"}
{"compound": "O=C(NC(c1c(F)cccc1F)C(F)(F)F)c1cn(-c2ccc(F)cc2F)c2nc(N3C[C@@H](O)CC3=O)ccc2c1=O (single isomer, unassigned) [Example 245]", "classification": "TRUE"}
